- System: Enterococcus faecalis
- assay: Broth microdilution MIC
- Format: cell-based
- run conditions: E. faecalis 4158, VSE, read-out: MIC

mol smiles	uom	reported relation	MIC
Cc1c(CN(C)C(=O)/C=C/c2cnc3c(c2)CCC(=O)N3COP(=O)(O)O)oc2ccccc12	µg/mL	>	16
O=C(O)c1cn(C2CC2)c2cc(N3CCNCC3)c(F)cc2c1=O	µg/mL	=	64
Cc1c(CN(C)C(=O)/C=C/c2cnc3c(c2)CCC(=O)N3)oc2ccccc12	µg/mL	>	2
CC(=O)NC[C@H]1CN(c2ccc(N3CCOCC3)c(F)c2)C(=O)O1	µg/mL	=	1

---

- Test system: Enterococcus faecalis
- assay: Broth microdilution MIC
- Format: cell-based
- run conditions: E. faecalis 4212, VSE, read-out: MIC
measurement type: MIC (µg/mL)

mol smiles	measurement type	uom	reported relation	data value
Cc1c(CN(C)C(=O)/C=C/c2cnc3c(c2)CCC(=O)N3COP(=O)(O)O)oc2ccccc12	MIC	µg/mL	>	16
O=C(O)c1cn(C2CC2)c2cc(N3CCNCC3)c(F)cc2c1=O	MIC	µg/mL	=	32
Cc1c(CN(C)C(=O)/C=C/c2cnc3c(c2)CCC(=O)N3)oc2ccccc12	MIC	µg/mL	>	2
CC(=O)NC[C@H]1CN(c2ccc(N3CCOCC3)c(F)c2)C(=O)O1	MIC	µg/mL	=	1

---

- System: Escherichia coli
- assay: Broth microdilution MIC
- Assay type: cell-based
- run conditions: Escherichia coli, E. coli 5255; read-out: MIC
Let's look at some compounds and their measured MIC.
measurement type: MIC

mol smiles	data value
O=C(O)c1cn(C2CC2)c2cc(N3CCNCC3)c(F)cc2c1=O	0.008 µg/mL
CC(=O)NC[C@H]1CN(c2ccc(N3CCOCC3)c(F)c2)C(=O)O1	64 µg/mL
Cc1c(CN(C)C(=O)/C=C/c2cnc3c(c2)CCC(=O)N3COP(=O)(O)O)oc2ccccc12	> 16 µg/mL
Cc1c(CN(C)C(=O)/C=C/c2cnc3c(c2)CCC(=O)N3)oc2ccccc12	> 2 µg/mL

---

- assay: Aqueous solubility of salts at 25° C.
- Assay type: physicochemical
- run conditions: aqueous buffer, pH 6.6, aqueous buffer, thermodynamic from solid, originally amorphous, crystallized within 7 days in aqueous buffer, pH 6.6-7.1; read-out: solubility after crystallization in aqueous buffer
measurement type: solubility

mol smiles	measurement type	data value
Cc1c(CN(C)C(=O)/C=C/c2cnc3c(c2)CCC(=O)N3COP(=O)([O-])[O-])oc2ccccc12.[Na+].[Na+]	solubility	< 5000 µg/mL

---

Let's look at some compounds and their measured MIC.
- Tested on: Staphylococcus aureus
- assay: Broth microdilution MIC
- Type: cell-based
- run conditions: Staphylococcus aureus, MSSA, S. aureus 3245; MSSA; read-out: MIC

compound	tested system	MIC, µg/mL
O=C(O)c1cn(C2CC2)c2cc(N3CCNCC3)c(F)cc2c1=O [Ciprofloxacin]	Staphylococcus aureus	0.5
CC(=O)NC[C@H]1CN(c2ccc(N3CCOCC3)c(F)c2)C(=O)O1 [Linezolid]	Staphylococcus aureus	2
Cc1c(CN(C)C(=O)/C=C/c2cnc3c(c2)CCC(=O)N3)oc2ccccc12 [Compound Z]	Staphylococcus aureus	0.015
Cc1c(CN(C)C(=O)/C=C/c2cnc3c(c2)CCC(=O)N3COP(=O)(O)O)oc2ccccc12 [Compound 10]	Staphylococcus aureus	16

---

- Test system: Streptococcus pneumoniae
- assay: Broth microdilution MIC
- Assay type: cell-based
- run conditions: ATCC49619, S. pneumoniae ATCC 49619, read-out: MIC
measurement type: MIC (µg/mL)

compound	reported relation	data value
Cc1c(CN(C)C(=O)/C=C/c2cnc3c(c2)CCC(=O)N3)oc2ccccc12 [Compound Z]	>	2
CC(=O)NC[C@H]1CN(c2ccc(N3CCOCC3)c(F)c2)C(=O)O1 [Linezolid]	=	1
O=C(O)c1cn(C2CC2)c2cc(N3CCNCC3)c(F)cc2c1=O [Ciprofloxacin]	=	0.5
Cc1c(CN(C)C(=O)/C=C/c2cnc3c(c2)CCC(=O)N3COP(=O)(O)O)oc2ccccc12 [Compound 10]	>	16

---

- System: Staphylococcus aureus
- assay: Broth microdilution MIC
- Format: cell-based
- run conditions: Staphylococcus aureus, MSSA, S. aureus 3104; MSSA; read-out: MIC

mol smiles	uom	reported relation	MIC
Cc1c(CN(C)C(=O)/C=C/c2cnc3c(c2)CCC(=O)N3)oc2ccccc12	µg/mL	=	0.015
CC(=O)NC[C@H]1CN(c2ccc(N3CCOCC3)c(F)c2)C(=O)O1	µg/mL	=	2
Cc1c(CN(C)C(=O)/C=C/c2cnc3c(c2)CCC(=O)N3COP(=O)(O)O)oc2ccccc12	µg/mL	>	16
O=C(O)c1cn(C2CC2)c2cc(N3CCNCC3)c(F)cc2c1=O	µg/mL	=	0.25

---

- assay: Aqueous solubility of salts at 25° C.
- Type: physicochemical
- run conditions: thermodynamic from solid; water, 25° C., mg free acid equivalent/mL; read-out: Solubility in Water
Where a name gives a salt, the structure may show the parent alone.

compound	solubility
Cc1c(CN(C)C(=O)/C=C/c2cnc3c(c2)CCC(=O)N3COP2(=O)[O][Mg][O]2)oc2ccccc12 [Compound 12]	< 1000 µg/mL
Cc1c(CN(C)C(=O)/C=C/c2cnc3c(c2)CCC(=O)N3COP2(=O)[O][Ca][O]2)oc2ccccc12 [Compound 13, calcium salt]	< 100 µg/mL

---

- assay: Aqueous solubility of salts at 25° C.
- Type: physicochemical
- run conditions: water, 25 °C, water, thermodynamic from solid, water, 25° C., mg free acid equivalent/mL; read-out: Solubility in Water

compound	solubility
Cc1c(CN(C)C(=O)/C=C/c2cnc3c(c2)CCC(=O)N3)oc2ccccc12 [Compound IV, reference compound]	< 1 µg/mL
